Cited source for all entries: patent US20240270741A1

Recorded IC50, one value per entry.
target-system: FGFR2 (Homo sapiens, UniProt P21802)
Sequence (P21802 399-821 limits assumed): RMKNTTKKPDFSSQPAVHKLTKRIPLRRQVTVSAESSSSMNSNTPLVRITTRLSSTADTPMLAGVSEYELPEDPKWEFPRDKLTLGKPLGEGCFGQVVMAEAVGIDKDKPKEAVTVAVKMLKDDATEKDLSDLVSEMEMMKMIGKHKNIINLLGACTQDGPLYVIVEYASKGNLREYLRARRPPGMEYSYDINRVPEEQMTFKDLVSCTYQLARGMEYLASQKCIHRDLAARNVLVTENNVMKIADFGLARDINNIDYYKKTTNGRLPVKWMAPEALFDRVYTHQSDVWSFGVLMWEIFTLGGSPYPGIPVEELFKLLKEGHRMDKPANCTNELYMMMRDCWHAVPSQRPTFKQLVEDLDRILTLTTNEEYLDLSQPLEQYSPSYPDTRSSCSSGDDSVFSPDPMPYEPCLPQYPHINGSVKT
experiment-description: FGFR wild type enzyme assay (HTRF KinEASE-TK), FGFR2
condition-label: Enz FGFR2 (nM)
assay-metric: IC50 (nM)

{"query-smiles": "Cc1ccc(Sc2cc(-c3cnn(C4CCNCC4)c3C)cn3ncc(C#N)c23)nc1C", "target-system": "FGFR2 (Homo sapiens, UniProt P21802)", "assay-metric": "IC50", "unit": "nM", "result-number": 2}
{"query-smiles": "N#Cc1cccc(Sc2cc(-c3cnn(C4CCNCC4)c3)cn3ncc(C#N)c23)c1", "target-system": "FGFR2 (Homo sapiens, UniProt P21802)", "assay-metric": "IC50", "unit": "nM", "result-number": 8}
{"query-smiles": "CN[C@H]1CC[C@@H](n2ncc(-c3cc(Sc4ccccc4C#N)c4c(C#N)cnn4c3)c2C)CC1", "target-system": "FGFR2 (Homo sapiens, UniProt P21802)", "assay-metric": "IC50", "unit": "nM", "result-number": 0.3}
{"query-smiles": "CN1CCC[C@H]1C(=O)N1CCC(n2cc(-c3cc(Sc4ccccn4)c4c(C#N)cnn4c3)cn2)CC1", "target-system": "FGFR2 (Homo sapiens, UniProt P21802)", "assay-metric": "IC50", "unit": "nM", "result-number": 2}
{"query-smiles": "Cc1ccnc(C)c1Sc1cc(-c2cnn([C@H]3CCCNC3)c2)cn2ncc(C#N)c12", "target-system": "FGFR2 (Homo sapiens, UniProt P21802)", "assay-metric": "IC50", "unit": "nM", "result-number": 11}
{"query-smiles": "Cc1c(-c2cc(Sc3ncccc3F)c3c(C#N)cnn3c2)cnn1C1CCN(CCO)CC1", "target-system": "FGFR2 (Homo sapiens, UniProt P21802)", "assay-metric": "IC50", "unit": "nM", "result-number": 2}

====

target-system: FGFR2 (Homo sapiens)
experiment-description: FGFR wild type enzyme assay (HTRF KinEASE-TK), FGFR2
condition-label: Enz FGFR2 (nM), FGFR2 wild type enzyme assay
Assign labels as follows, please: YES for IC50 below 1 nM; NO for IC50 equal to or exceeding 1 nM.

{"compound": "CC(=O)NCCn1cc(-c2cc(Sc3ccccc3C#N)c3c(C#N)cnn3c2)cn1", "target-system": "FGFR2 (Homo sapiens)", "class-name": "NO"}
{"compound": "N#Cc1ccccc1Sc1cc(-c2cnn(CCC(=O)N3CCNCC3)c2)cn2ncc(C#N)c12", "target-system": "FGFR2 (Homo sapiens)", "class-name": "YES"}
{"compound": "CN=S1(=O)CCC(n2cc(-c3cc(Sc4ccc(F)cc4C#N)c4c(C#N)cnn4c3)cn2)CC1 (stereo not drawn)", "target-system": "FGFR2 (Homo sapiens)", "class-name": "NO"}
{"compound": "CN(C)C(=O)CCn1cc(-c2cc(Sc3ccccc3C#N)c3c(C#N)cnn3c2)cn1", "target-system": "FGFR2 (Homo sapiens)", "class-name": "YES"}
{"compound": "Cc1c(-c2cc(Sc3ncc(F)cc3F)c3c(C#N)cnn3c2)cnn1[C@H]1CCN(C)C(C)(C)C1", "target-system": "FGFR2 (Homo sapiens)", "class-name": "NO"}

====

target-system: FGFR2 (Homo sapiens, UniProt P21802)
experiment-description: FGFR wild type enzyme assay (HTRF KinEASE-TK), FGFR2
condition-label: Enz FGFR2 (nM), FGFR2 wild type enzyme

{"query-smiles": "CO[C@@H](C)CN1CCC(n2ncc(-c3cc(Sc4ccccc4C#N)c4c(C#N)cnn4c3)c2C)CC1", "unit": "nM", "IC50": 1}
{"query-smiles": "Cc1nn([C@H]2CC[C@@H](O)CC2)cc1-c1cc(Sc2ncccc2F)c2c(C#N)cnn2c1", "unit": "nM", "IC50": 1.5}
{"query-smiles": "Cc1c(-c2cc(Sc3ccc(F)cn3)c3c(C#N)cnn3c2)cnn1[C@H]1CCCNC1", "unit": "nM", "IC50": 5}
{"query-smiles": "CC(=O)N1CCC(n2ncc(-c3cc(Sc4ccc(F)cn4)c4c(C#N)cnn4c3)c2C)CC1", "unit": "nM", "IC50": 6}
{"query-smiles": "CN[C@]1(C)CC[C@H](n2ncc(-c3cc(Sc4ncccc4F)c4c(C#N)cnn4c3)c2C)CC1", "unit": "nM", "IC50": 1}
{"query-smiles": "Cc1c(-c2cc(Sc3ncccc3F)c3c(C#N)cnn3c2)cnn1[C@H]1CC[C@@H](NS(C)(=O)=O)CC1", "unit": "nM", "IC50": 1}
{"query-smiles": "Cc1c(-c2cc(Sc3ncccc3F)c3c(C#N)cnn3c2)cnn1C1CCN(C(=O)[C@@H](C)N(C)C)CC1", "unit": "nM", "IC50": 1.6}
{"query-smiles": "CC(=O)N[C@H]1CC[C@@H](n2cc(-c3cc(Sc4ncccc4C)c4c(C#N)cnn4c3)cn2)CC1", "unit": "nM", "IC50": 3}
{"query-smiles": "CC(=O)N1CC[C@]2(CC[C@@H](n3ncc(-c4cc(Sc5ncccc5F)c5c(C#N)cnn5c4)c3C)CC2)C1", "unit": "nM", "IC50": 1}
{"query-smiles": "Cc1c(-c2cc(Sc3ncccc3F)c3c(C#N)cnn3c2)cnn1C[C@H]1[C@@H]2CCC[C@@H]21", "unit": "nM", "IC50": 4}
{"query-smiles": "CO[C@H](C)CN1CCC(n2ncc(-c3cc(Sc4ncccc4F)c4c(C#N)cnn4c3)c2C)CC1", "unit": "nM", "IC50": 2}
{"query-smiles": "Cc1c(-c2cc(Sc3ccccc3C#N)c3c(C#N)cnn3c2)cnn1[C@H]1CC[C@@H](NCC2(C)CC2)CC1", "unit": "nM", "IC50": 0.5}
{"query-smiles": "Cc1c(-c2cc(Sc3ccc(F)cn3)c3c(C#N)cnn3c2)cnn1[C@H]1CC[C@@](C)(N)CC1", "unit": "nM", "IC50": 3}
{"query-smiles": "CC(=O)N[C@H]1CC[C@@H](n2cc(-c3cc(Sc4ccccc4C#N)c4c(C#N)cnn4c3)cn2)CC1", "unit": "nM", "IC50": 0.4}
{"query-smiles": "Cc1c(-c2cc(Sc3ncccc3F)c3c(C#N)cnn3c2)cnn1[C@@H](C)C1CCNCC1", "unit": "nM", "IC50": 2}
{"query-smiles": "Cc1c(-c2cc(Sc3ncc(F)cc3F)c3c(C#N)cnn3c2)cnn1C1CCN(C)CC1", "unit": "nM", "IC50": 3}
{"query-smiles": "Cc1c(-c2cc(Sc3c(F)cc(F)cc3C#N)c3c(C#N)cnn3c2)cnn1C1CCNCC1", "unit": "nM", "IC50": 7}
{"query-smiles": "Cc1c(-c2cc(Sc3ccc(F)cc3C#N)c3c(C#N)cnn3c2)cnn1[C@H]1CC[C@H](O)CC1", "unit": "nM", "IC50": 1}
{"query-smiles": "CO[C@H](C)CN1CCC(n2ncc(-c3cc(Sc4ccccc4C#N)c4c(C#N)cnn4c3)c2C)CC1", "unit": "nM", "IC50": 1}
{"query-smiles": "Cc1c(-c2cc(Sc3ccccc3C#N)c3c(C#N)cnn3c2)cnn1C1CCN(C[C@@H](C)O)CC1", "unit": "nM", "IC50": 1}
{"query-smiles": "Cc1c(-c2cc(Sc3ncccc3F)c3c(C#N)cnn3c2)cnn1C[C@@H]1[C@@H]2CNC[C@@H]21", "unit": "nM", "IC50": 1}
{"query-smiles": "Cc1c(-c2cc(Sc3ncc(F)cc3F)c3c(C#N)cnn3c2)cnn1C1CCN(C(=O)CO)CC1", "unit": "nM", "IC50": 4}
{"query-smiles": "Cc1c(-c2cc(Sc3ccc(F)cc3C#N)c3c(C#N)cnn3c2)cnn1C1CCN(C(C)C)CC1", "unit": "nM", "IC50": 1}
{"query-smiles": "CN[C@]1(C)CC[C@H](n2ncc(-c3cc(Sc4ccccc4C#N)c4c(C#N)cnn4c3)c2C)CC1", "unit": "nM", "IC50": 0.3}
{"query-smiles": "Cc1c(-c2cc(Sc3ccc(F)cc3C#N)c3c(C#N)cnn3c2)cnn1[C@H]1CC[C@H](NC(=O)CO)CC1", "unit": "nM", "IC50": 1}

====

target-system: FGFR2 (Homo sapiens, UniProt P21802)
experiment-description: FGFR wild type enzyme assay (HTRF KinEASE-TK), FGFR2
condition-label: Enz FGFR2 (nM), FGFR2 wild type enzyme assay
Listed here: items and their measured IC50.

{"query-smiles": "CNc1ccc(-c2cc(Sc3ccc(F)cc3C#N)c3c(C#N)cnn3c2)cn1", "IC50 / nM": 5}
{"query-smiles": "N#Cc1ccccc1Sc1cc(-c2ccc(N3CCC(O)CC3)nc2)cn2ncc(C#N)c12", "IC50 / nM": 0.4}
{"query-smiles": "Cc1c(-c2cc(Sc3ccc(F)cc3C#N)c3c(C#N)cnn3c2)cnn1[C@H]1CCN(C)C(C)(C)C1", "IC50 / nM": 1}
